# Test protocol: activity coefficient (dimensionless); of the first substance listed, at infinite dilution; xn = mol fraction of the nth substance listed
# Test parameters: 298.15 K; 101.33 kPa; Liquid; Chromatography; x1 = 0
Outcome measure: activity coefficient
Form: value (number only, do not type unit).

[[record]]
compound = "C1CCCC1 [cyclopentane] + CCCCCCCCOS(=O)(=O)[O-].CCCCn1cc[n+](C)c1"
quantitative_result = 4.09

[[record]]
compound = "ClC(Cl)(Cl)Cl [tetrachloromethane] + CCCCCCCCOS(=O)(=O)[O-].CCCCn1cc[n+](C)c1"
quantitative_result = 1.65

[[record]]
compound = "C=CCCCC [hex-1-ene] + CCCCCCCCOS(=O)(=O)[O-].CCCCn1cc[n+](C)c1"
quantitative_result = 5.43


# ---- query compound ----
Q) Which activity coefficient is listed for CCCCCCC [heptane] + CCCCCCCCOS(=O)(=O)[O-].CCCCn1cc[n+](C)c1 ?
A) 8.27

---

Some molecules, each annotated with its measured activity coefficient.
# Test protocol: activity coefficient (dimensionless); of the first substance listed, at infinite dilution; xn = mol fraction of the nth substance listed
# Test parameters: 313.15 K; 101.33 kPa; Liquid; Chromatography; x1 = 0

Q) Which activity coefficient is listed for CCCCC [pentane] + CCCCCCCCOS(=O)(=O)[O-].CCCCn1cc[n+](C)c1 ?
A) 7.14

---

# Test protocol: activity coefficient (dimensionless); of the first substance listed, at infinite dilution; xn = mol fraction of the nth substance listed
# Test parameters: 313.15 K; 101.33 kPa; Liquid; Chromatography; x1 = 0
Some compounds, each annotated with its measured activity coefficient.
Form: value (number only, do not type unit).

Worked examples, 2 compounds total:
[[record]]
compound = "C1CCCC1 [cyclopentane] + CCCCCCCCOS(=O)(=O)[O-].CCCCn1cc[n+](C)c1"
quantitative_result = 4.24

[[record]]
compound = "CCCCCCCC [octane] + CCCCCCCCOS(=O)(=O)[O-].CCCCn1cc[n+](C)c1"
quantitative_result = 9.96


# ---- query compound ----
Q) Which activity coefficient is listed for c1ccccc1 [benzene] + CCCCCCCCOS(=O)(=O)[O-].CCCCn1cc[n+](C)c1 ?
A) 1.44
